The reported numbers originate from PubChem BioAssay AID1845217.

Tested on: VA-ES-BJ tumor spheroid viability
procedureSummary: Anticancer human tumor VA-ES-BJ cell line growth inhibition
conditionsUsed: second compound 94.9 pM; first compound 0.3 µM; hits give low values; spheroids with HUVEC and MSC
Entries and their viability, T/C
Give the quantity in %, number only.

Examples with their reported viability, T/C follow.
Cn1ncnc1[C@H]1c2n[nH]c(=O)c3cc(F)cc(c23)N[C@@H]1c1ccc(F)cc1 + COc1cc2c(cc1O)CCNC21CSC2c3c(OC(C)=O)c(C)c4c(c3C(COC1=O)N1C(O)C3Cc5cc(C)c(OC)c(O)c5C(C21)N3C)OCO4 : 42.1
Cc1sc2c(c1C)C(c1ccc(Cl)cc1)=NC(CC(=O)Nc1ccc(O)cc1)c1nnc(C)n1-2 (centres undefined) + COc1cc2c(cc1O)CCNC21CSC2c3c(OC(C)=O)c(C)c4c(c3C(COC1=O)N1C(O)C3Cc5cc(C)c(OC)c(O)c5C(C21)N3C)OCO4 : 27.3
CNCc1ccc(-c2cc(-c3nc(-c4ccc(S(=O)(=O)C(C)C)cc4)cnc3N)on2)cc1 + COc1cc2c(cc1O)CCNC21CSC2c3c(OC(C)=O)c(C)c4c(c3C(COC1=O)N1C(O)C3Cc5cc(C)c(OC)c(O)c5C(C21)N3C)OCO4 : 34.1

# ---- query molecule ----
viability, T/C reported for this molecule O=C(c1cc(Cc2n[nH]c(=O)c3ccccc23)ccc1F)N1CCN(C(=O)C2CC2)CC1 + COc1cc2c(cc1O)CCNC21CSC2c3c(OC(C)=O)c(C)c4c(c3C(COC1=O)N1C(O)C3Cc5cc(C)c(OC)c(O)c5C(C21)N3C)OCO4 : 84.7

* * *

System: VA-ES-BJ tumor spheroid viability
procedureSummary: Anticancer human tumor VA-ES-BJ cell line growth inhibition;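 also: spheroids exposed to compounds for seven days; percent of DMSO vehicle control viability so 100% = untreated growth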
conditionsUsed: second compound 30 pM; first compound 0.949 µM; hits give low values; spheroids with HUVEC and MSC
reportedProperty: viability, T/C (%)
Please state the figure in %; there is no need to write the unit.

Use these answered entries as a reference point.
Cn1ncnc1[C@H]1c2n[nH]c(=O)c3cc(F)cc(c23)N[C@@H]1c1ccc(F)cc1 + COc1cc2c(cc1O)CCNC21CSC2c3c(OC(C)=O)c(C)c4c(c3C(COC1=O)N1C(O)C3Cc5cc(C)c(OC)c(O)c5C(C21)N3C)OCO4 : 29.8
O=C(c1cc(Cc2n[nH]c(=O)c3ccccc23)ccc1F)N1CCN(C(=O)C2CC2)CC1 + COc1cc2c(cc1O)CCNC21CSC2c3c(OC(C)=O)c(C)c4c(c3C(COC1=O)N1C(O)C3Cc5cc(C)c(OC)c(O)c5C(C21)N3C)OCO4 : 99

The measured viability, T/C associated with Cc1sc2c(c1C)C(c1ccc(Cl)cc1)=NC(CC(=O)Nc1ccc(O)cc1)c1nnc(C)n1-2 (centres undefined) + COc1cc2c(cc1O)CCNC21CSC2c3c(OC(C)=O)c(C)c4c(c3C(COC1=O)N1C(O)C3Cc5cc(C)c(OC)c(O)c5C(C21)N3C)OCO4 reads 24

So for CNCc1ccc(-c2cc(-c3nc(-c4ccc(S(=O)(=O)C(C)C)cc4)cnc3N)on2)cc1 + COc1cc2c(cc1O)CCNC21CSC2c3c(OC(C)=O)c(C)c4c(c3C(COC1=O)N1C(O)C3Cc5cc(C)c(OC)c(O)c5C(C21)N3C)OCO4 , the logged viability, T/C turned out to be 7.78

* * *

System: VA-ES-BJ tumor spheroid viability
procedureSummary: Anticancer human tumor VA-ES-BJ cell line growth inhibition;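 also: spheroids exposed to compounds for seven days; percent of DMSO vehicle control viability so 100% = untreated growth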
conditionsUsed: second compound 0.3 µM; first compound 3 µM; hits give low values; spheroids with HUVEC and MSC
reportedProperty: viability, T/C (%)
Answer in %, number only, no unit symbol.

Known viability, T/C results, listed for orientation:
O=C(c1cc(Cc2n[nH]c(=O)c3ccccc23)ccc1F)N1CCN(C(=O)C2CC2)CC1 + CC[C@@]1(O)C(=O)OCc2c1cc1n(c2=O)Cc2cc3c(CN(C)C)c(O)ccc3nc2-1 : 8.19
Cn1ncnc1[C@H]1c2n[nH]c(=O)c3cc(F)cc(c23)N[C@@H]1c1ccc(F)cc1 + CC[C@@]1(O)C(=O)OCc2c1cc1n(c2=O)Cc2cc3c(CN(C)C)c(O)ccc3nc2-1 : 7.66

The molecule listed as Cc1sc2c(c1C)C(c1ccc(Cl)cc1)=NC(CC(=O)Nc1ccc(O)cc1)c1nnc(C)n1-2 (centres undefined) + CC[C@@]1(O)C(=O)OCc2c1cc1n(c2=O)Cc2cc3c(CN(C)C)c(O)ccc3nc2-1 has a reported viability, T/C of 3.36

Entry CNCc1ccc(-c2cc(-c3nc(-c4ccc(S(=O)(=O)C(C)C)cc4)cnc3N)on2)cc1 + CC[C@@]1(O)C(=O)OCc2c1cc1n(c2=O)Cc2cc3c(CN(C)C)c(O)ccc3nc2-1 ; viability, T/C = 3.27

* * *

Tested on: VA-ES-BJ tumor spheroid viability
procedureSummary: Anticancer human tumor VA-ES-BJ cell line growth inhibition;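 also: spheroids exposed to compounds for seven days; percent of DMSO vehicle control viability so 100% = untreated growth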
conditionsUsed: second compound 0.000949 µM; first compound 0.1 µM; hits give low values; spheroids with HUVEC and MSC
Cut-off 3% on viability, T/C: below means 1.0, at or above means 0.0.

CC(C)n1c(=O)n(C)c2cnc3cc(F)c(-c4ccc(OCCCN5CCCCC5)nc4)cc3c21 + COc1cc2c(cc1O)CCNC21CSC2c3c(OC(C)=O)c(C)c4c(c3C(COC1=O)N1C(O)C3Cc5cc(C)c(OC)c(O)c5C(C21)N3C)OCO4 : 1.0
COc1ccc([C@@H](O)c2cc(-c3ncnc4cc(N5CCOCC5)ccc34)c(F)cc2Cl)nn1 + COc1cc2c(cc1O)CCNC21CSC2c3c(OC(C)=O)c(C)c4c(c3C(COC1=O)N1C(O)C3Cc5cc(C)c(OC)c(O)c5C(C21)N3C)OCO4 : 0.0
COc1cc(C)[nH]c(=O)c1CN1CCc2c(Cl)cc(C(OC)C3COC3)c(Cl)c2C1=O (stereo unspecified) + COc1cc2c(cc1O)CCNC21CSC2c3c(OC(C)=O)c(C)c4c(c3C(COC1=O)N1C(O)C3Cc5cc(C)c(OC)c(O)c5C(C21)N3C)OCO4 : 1.0
[2H]c1nc(C)nc([2H])c1-c1cc(NC[C@@H](C)c2cccc3c(C(=O)NC)ccnc23)ncn1 + COc1cc2c(cc1O)CCNC21CSC2c3c(OC(C)=O)c(C)c4c(c3C(COC1=O)N1C(O)C3Cc5cc(C)c(OC)c(O)c5C(C21)N3C)OCO4 : 1.0
CC1COCCN1c1cc(-c2ccnn2C)c2ccnc(-c3ccn[nH]3)c2n1 (stereo unspecified) + COc1cc2c(cc1O)CCNC21CSC2c3c(OC(C)=O)c(C)c4c(c3C(COC1=O)N1C(O)C3Cc5cc(C)c(OC)c(O)c5C(C21)N3C)OCO4 : 1.0

Kindly review the next molecule as well.
*Q* Quick check: viability, T/C of Cc1cc(C)c(CNC(=O)c2cc(-c3ccc(CN4CCOCC4)cc3)cc3c2cnn3C2CCCC2)c(=O)[nH]1 + COc1cc2c(cc1O)CCNC21CSC2c3c(OC(C)=O)c(C)c4c(c3C(COC1=O)N1C(O)C3Cc5cc(C)c(OC)c(O)c5C(C21)N3C)OCO4 under 3%?
*A* 0.0

* * *

System: VA-ES-BJ tumor spheroid viability
procedureSummary: Anticancer human tumor VA-ES-BJ cell line growth inhibition; active = viability on the fitted dose curve at most 10% of control; inactive = the rest;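 also: spheroids exposed to compounds for seven days; percent of DMSO vehicle control viability so 100% = untreated growth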
conditionsUsed: second compound 0.003 µM; first compound 0.316 µM; spheroids with HUVEC and MSC
Protocol: Multicellular complex tumor spheroid response to DNA repair inhibitors in combination with DNA-damaging drugs This study explores the anticancer activities of DNA-damaging drugs and inhibitors of DNA damage repair, both as single agents and in combinations. […] Twenty-six patient-derived or established malignant cell lines were evaluated representing sarcoma, melanoma, small cell lung cancer (SCLC), non-small cell lung cancer (NSCLC), as well as bladder, ovarian and pancreatic cancers. […]
# output must be one of active, inactive

Worked set:
CC(C)n1c(=O)n(C)c2cnc3cc(F)c(-c4ccc(OCCCN5CCCCC5)nc4)cc3c21 + COc1cc2c(cc1O)CCNC21CSC2c3c(OC(C)=O)c(C)c4c(c3C(COC1=O)N1C(O)C3Cc5cc(C)c(OC)c(O)c5C(C21)N3C)OCO4 : active
COc1cc(C)[nH]c(=O)c1CN1CCc2c(Cl)cc(C(OC)C3COC3)c(Cl)c2C1=O (stereo not given) + CC[C@@]1(O)C(=O)OCc2c1cc1n(c2=O)Cc2cc3c(CN(C)C)c(O)ccc3nc2-1 : inactive

*Q* Please indicate how the test categorized [2H]c1nc(C)nc([2H])c1-c1cc(NC[C@@H](C)c2cccc3c(C(=O)NC)ccnc23)ncn1 + CC[C@@]1(O)C(=O)OCc2c1cc1n(c2=O)Cc2cc3c(CN(C)C)c(O)ccc3nc2-1 .
*A* inactive

*Q* Entry CC(C)n1c(=O)n(C)c2cnc3cc(F)c(-c4ccc(OCCCN5CCCCC5)nc4)cc3c21 + CC[C@@]1(O)C(=O)OCc2c1cc1n(c2=O)Cc2cc3c(CN(C)C)c(O)ccc3nc2-1 : call = ?
*A* inactive

*Q* What is the recorded call for this molecule in the test? Cc1cc(C)c(CNC(=O)c2cc(-c3ccc(CN4CCOCC4)cc3)cc3c2cnn3C2CCCC2)c(=O)[nH]1 + COc1cc2c(cc1O)CCNC21CSC2c3c(OC(C)=O)c(C)c4c(c3C(COC1=O)N1C(O)C3Cc5cc(C)c(OC)c(O)c5C(C21)N3C)OCO4
*A* active
